B1: Double-stranded RNA-binding protein Staufen homolog 1, residues 183 to 249; numbered along this chain, O95793 (parent)
chain: KSEISQVFEIALKRNLPVNFEVARESGPPHMKNFVTKVSVGEFVGEGEGKSKKISKKNAAIAVLEEL

Variants of: B1
Assay: abundance fitness (aPCA) (normalised: wild type 0, dead -1); higher = more abundant; growth selection in yeast, the domain comes from the species named
Conditions: Homo sapiens
Overview of reported abundance fitness across a group of variants:
Could you keep your reply to the number by itself?

The recorded abundance fitness for "F43I" is -0.197

The recorded abundance fitness for "G49I" is -0.791

The recorded abundance fitness for "N33A" is -0.219

The recorded abundance fitness for "A11Q" is -0.732

The recorded abundance fitness for "E9S" is -0.2

The recorded abundance fitness for "K37R" is 0.034

The recorded abundance fitness for "K32M" is -0.178

The recorded abundance fitness for "F20K" is -0.45

The recorded abundance fitness for "K50M" is -0.117

The recorded abundance fitness for "S39E" is -0.146

The recorded abundance fitness for "G49S" is -0.483
